Reference for the values: patent US20190071416A1

MEASUREMENT TARGET: SMYD3 (Homo sapiens, UniProt Q9H7B4)
Sequence (Q9H7B4 1-428): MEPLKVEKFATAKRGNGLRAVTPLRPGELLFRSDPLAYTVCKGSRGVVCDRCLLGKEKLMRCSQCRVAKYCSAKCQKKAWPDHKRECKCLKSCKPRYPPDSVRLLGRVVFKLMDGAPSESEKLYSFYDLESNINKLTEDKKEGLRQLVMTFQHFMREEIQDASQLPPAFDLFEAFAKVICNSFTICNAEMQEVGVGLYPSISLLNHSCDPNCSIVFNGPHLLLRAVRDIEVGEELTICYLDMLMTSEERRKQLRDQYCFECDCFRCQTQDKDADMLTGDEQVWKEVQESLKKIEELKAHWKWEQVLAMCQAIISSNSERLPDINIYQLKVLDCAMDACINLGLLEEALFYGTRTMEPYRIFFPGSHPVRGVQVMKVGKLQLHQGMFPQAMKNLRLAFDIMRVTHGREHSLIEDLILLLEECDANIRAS
PROTOCOL DESCRIPTION: SMYD3 biochemical assay (MTase-Glo, MAP3K2 peptide substrate)
CONDITION INFO: Table 3; MTase assay, MAP3K2 peptide substrate; read-out: IC50
Reported IC50 maps to class as: low bracket: < 200 nM; middle bracket: ≥ 200 nM and < 500 nM; high bracket: ≥ 500 nM

MOLECULE: O=C(c1ccc2c(Cl)c3c(nc2c1)CCCC3)N1CCN(C(=O)c2cc(C3CC3)on2)CC1
MEASUREMENT TARGET: SMYD3 (Homo sapiens, UniProt Q9H7B4)
LABEL CLASS: high bracket
//
MOLECULE: CCCOC(=O)N1CCN(C(=O)c2ccc3c(Cl)cc(-c4ccc(C#N)cc4)nc3c2)C[C@H]1C
MEASUREMENT TARGET: SMYD3 (Homo sapiens, UniProt Q9H7B4)
LABEL CLASS: middle bracket
//
MOLECULE: CCCOC(=O)N1CCN(C(=O)c2ccc3c(Cl)c4c(nc3c2)CC(c2ccccn2)CC4)CC1 (single isomer, unassigned) [A053 (Ent-1)]
MEASUREMENT TARGET: SMYD3 (Homo sapiens, UniProt Q9H7B4)
LABEL CLASS: low bracket
//
MOLECULE: CCCOC(=O)N1CCN(C(=O)c2ccc3c(Cl)c4c(nc3c2)CCCC4)C(C(N)=O)C1 (centres unmarked)
MEASUREMENT TARGET: SMYD3 (Homo sapiens, UniProt Q9H7B4)
LABEL CLASS: high bracket
//
MOLECULE: CCCOC(=O)N1CCN(C(=O)c2ccc3c(Cl)c4c(nc3c2)CCC(C(=O)OC)C4)CC1 (centres unmarked)
MEASUREMENT TARGET: SMYD3 (Homo sapiens, UniProt Q9H7B4)
LABEL CLASS: high bracket
//
MOLECULE: CCCOC(=O)N1CCN(C(=O)c2ccc3c(Cl)c4c(nc3c2)CC(CC(N)=O)CC4)CC1 (centres unmarked)
MEASUREMENT TARGET: SMYD3 (Homo sapiens, UniProt Q9H7B4)
LABEL CLASS: high bracket
//
MOLECULE: CCCOC(=O)N1CCN(C(=O)c2ccc3c(Cl)c4c(nc3c2)CC(c2ccccn2)CC4)[C@H](C)C1 (some centres unmarked)
MEASUREMENT TARGET: SMYD3 (Homo sapiens, UniProt Q9H7B4)
LABEL CLASS: low bracket
//
MOLECULE: CCCOC(=O)N1CCN(C(=O)c2ccc3c(Cl)cc(-c4cnn(CC(F)(F)F)c4)nc3c2)C[C@@H]1C
MEASUREMENT TARGET: SMYD3 (Homo sapiens, UniProt Q9H7B4)
LABEL CLASS: low bracket
//
MOLECULE: CCCOC(=O)N1CCN(C(=O)c2ccc3c(Cl)cc(-c4cc(F)c(O)c(F)c4)nc3c2)CC1
MEASUREMENT TARGET: SMYD3 (Homo sapiens, UniProt Q9H7B4)
LABEL CLASS: low bracket
//
MOLECULE: CCCOC(=O)N1CC(C)N(C(=O)c2ccc3c(Cl)c4c(nc3c2)CCCC4)C(C)C1 (centres unmarked)
MEASUREMENT TARGET: SMYD3 (Homo sapiens, UniProt Q9H7B4)
LABEL CLASS: high bracket
//
MOLECULE: Cc1cc(C(=O)N2CCN(C(=O)c3ccc4c(Cl)c5c(nc4c3)CCCC5)[C@@H](C)C2)no1
MEASUREMENT TARGET: SMYD3 (Homo sapiens, UniProt Q9H7B4)
LABEL CLASS: middle bracket
//
MOLECULE: CCCOC(=O)N1CCN(C(=O)c2ccc3c(Cl)c4c(nc3c2)CC(c2ccnc(C(N)=O)c2)CC4)C[C@H]1C (some centres unmarked)
MEASUREMENT TARGET: SMYD3 (Homo sapiens, UniProt Q9H7B4)
LABEL CLASS: middle bracket
//
MOLECULE: CCCOC(=O)N1CCN(C(=O)c2ccc3c(Cl)cc(-c4ccc5nc(C)oc5c4)nc3c2)CC1
MEASUREMENT TARGET: SMYD3 (Homo sapiens, UniProt Q9H7B4)
LABEL CLASS: middle bracket
//
MOLECULE: CCCOC(=O)N1CC2CCCC(C1)N2C(=O)c1ccc2c(Cl)c3c(nc2c1)CCCC3
MEASUREMENT TARGET: SMYD3 (Homo sapiens, UniProt Q9H7B4)
LABEL CLASS: middle bracket
//
MOLECULE: C=CCOC(=O)N1CCN(C(=O)c2ccc3c(Cl)c4c(nc3c2)CCCC4)CC1
MEASUREMENT TARGET: SMYD3 (Homo sapiens, UniProt Q9H7B4)
LABEL CLASS: high bracket
//
MOLECULE: CCCOC(=O)N1CCN(C(=O)c2ccc3c(Cl)cc(-c4ccc5cn(C)nc5c4)nc3c2)CC1
MEASUREMENT TARGET: SMYD3 (Homo sapiens, UniProt Q9H7B4)
LABEL CLASS: low bracket
//
MOLECULE: CCCOC(=O)N1CCN(C(=O)c2ccc3c(Cl)cc(-c4ccc5c(c4)CNC5=O)nc3c2)CC1
MEASUREMENT TARGET: SMYD3 (Homo sapiens, UniProt Q9H7B4)
LABEL CLASS: low bracket
//
MOLECULE: CCCOC(=O)N1CCN(C(=O)c2ccc3c(Cl)c4c(nc3c2)CC(c2ccncn2)CC4)CC1 (centres unmarked)
MEASUREMENT TARGET: SMYD3 (Homo sapiens, UniProt Q9H7B4)
LABEL CLASS: low bracket
//
MOLECULE: CCCOC(=O)N1CCN(C(=O)c2ccc3c(Cl)c(C)c(-c4ccc(CN)cc4)nc3c2)CC1
MEASUREMENT TARGET: SMYD3 (Homo sapiens, UniProt Q9H7B4)
LABEL CLASS: low bracket
//
MOLECULE: CCCOC(=O)N1CCN(C(=O)c2ccc3c(Cl)c4c(nc3c2)CC(c2ccnc(C#N)c2)CC4)CC1 (centres unmarked)
MEASUREMENT TARGET: SMYD3 (Homo sapiens, UniProt Q9H7B4)
LABEL CLASS: high bracket
//
MOLECULE: CCCOC(=O)N1CCN(C(=O)c2ccc3c(Cl)cc(-c4ccc(F)c(C(=O)NC)c4)nc3c2)CC1
MEASUREMENT TARGET: SMYD3 (Homo sapiens, UniProt Q9H7B4)
LABEL CLASS: middle bracket
//
MOLECULE: CCCOC(=O)N1CCN(C(=O)c2ccc3c(Cl)cc(-c4ccccc4)nc3c2)[C@H](C)C1
MEASUREMENT TARGET: SMYD3 (Homo sapiens, UniProt Q9H7B4)
LABEL CLASS: low bracket
//
MOLECULE: CCCOC(=O)N1CCN(C(=O)c2ccc3c(Cl)c4c(nc3c2)CC(C(=O)OC)CC4)CC1 (centres unmarked)
MEASUREMENT TARGET: SMYD3 (Homo sapiens, UniProt Q9H7B4)
LABEL CLASS: high bracket
//
MOLECULE: CCCOC(=O)N1C(C)CN(C(=O)c2ccc3c(Cl)c4c(nc3c2)CCCC4)CC1C (centres unmarked)
MEASUREMENT TARGET: SMYD3 (Homo sapiens, UniProt Q9H7B4)
LABEL CLASS: middle bracket
//
MOLECULE: CCCOC(=O)N1CCN(C(=O)c2ccc3c(Cl)cc(-c4cccc5[nH]cnc45)nc3c2)CC1
MEASUREMENT TARGET: SMYD3 (Homo sapiens, UniProt Q9H7B4)
LABEL CLASS: low bracket
